Molecular target: T1, human hippocampal Y2 receptor (clone CG-13) (human, UniProt P49146 1-381)
T1 construct: 381 amino acids; also called CG-13 receptor; human Y2
T1 sequence: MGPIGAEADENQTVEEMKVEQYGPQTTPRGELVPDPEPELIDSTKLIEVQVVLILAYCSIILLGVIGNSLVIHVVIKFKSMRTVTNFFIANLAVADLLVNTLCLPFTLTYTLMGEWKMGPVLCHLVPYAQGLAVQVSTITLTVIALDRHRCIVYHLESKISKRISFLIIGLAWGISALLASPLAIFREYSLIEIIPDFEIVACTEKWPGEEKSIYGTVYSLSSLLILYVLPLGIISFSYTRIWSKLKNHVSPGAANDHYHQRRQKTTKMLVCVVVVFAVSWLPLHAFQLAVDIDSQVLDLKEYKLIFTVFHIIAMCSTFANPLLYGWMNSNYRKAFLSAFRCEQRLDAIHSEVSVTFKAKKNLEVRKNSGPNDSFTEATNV
Test: 125I-PYY displacement, COS-7 membranes, Ki from IC50
pKi: −log10 of the molar value. Where no end group is shown, it is not given here.

BINDER	pKi
SALRHYINLITRQRY-NH2 (peptide, UniProt P01304 31-45, looked up, range 22-36; also called NPY22-36, porcine) [porcine NPY22-36]	8.34
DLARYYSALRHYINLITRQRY-NH2 (peptide, UniProt P01304 25-45, looked up, range 16-36; also called NPY16-36, porcine) [porcine NPY16-36]	8.42
SPEELSRYYASLRHYLNLVTRQRY-NH2 (peptide, UniProt P68005 13-36, looked up, range 13-36; also called PYY13-36, porcine) [porcine PYY13-36]	8.82
HYINLITRQRY-NH2 (peptide, UniProt P01304 35-45, looked up, range 26-36; also called NPY26-36, porcine) [porcine NPY26-36]	6.68
